tested on: PXR:RXRa (NR concentration 270 nM, RXRa partner concentration 90 nM); experiment: PBM binding z-score (relative to random genomic background probes); higher = stronger binding; sequences stand for … in GC…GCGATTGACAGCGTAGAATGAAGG
Measurement Kind: PBM binding z-score
# answer = number (no unit)

Some sequences with known PBM binding z-score results, for comparison:
INSERT INTO measurements (sequence_code, reported_result) VALUES
  ('CAAACTAGGTCAAGAGGTCAAAGTCCGCTTCCCG', 6.2),
  ('ATCGAAAGGACGAAGGTGAGTATACCCACCCGAA', 0.00854),
  ('CCTACTGGGCCAAAGCTCATTGATTCCAATGCTC', -0.568),
  ('TCATATCGGTAAAGGTGAAAGTCGAACGATATGA', 0.507),
  ('GTCCCAAGGTGAATAGGTCGTTGATGAGTAGGCG', 0.817);

// query Reported PBM binding z-score, sequence CCTATTAGTTGACCATAAGGGCACCCGAAGCTCG : ____
// result 0.521

// query Reported PBM binding z-score, sequence ATCTCTAGGTAACAAGTTCAGTGCAAGAGAGGAC : ____
// result 1.87

---

test system: PPARg:RXRa IVT, anti-PPARg (NR concentration 270 nM, RXRa partner concentration 90 nM); test: PBM binding z-score (relative to random genomic background probes); higher = stronger binding; sequences stand for … in GC…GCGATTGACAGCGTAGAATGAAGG
Measurement Kind: PBM binding z-score
# answer = number (no unit)

Some sequences with known PBM binding z-score results, for comparison:
INSERT INTO measurements (sequence_code, measurement_kind, reported_result) VALUES
  ('ATCGAAAGGCCGACGAGGTGAGTATACACCGTTT', 'PBM binding z-score', 0.479),
  ('ATATGTAGGTAAGCTGGGGTCATTCAGACTAGGC', 'PBM binding z-score', 5.46),
  ('TCTTGTGGATCAAGCAGGTTAAGAAAGCCTGAGT', 'PBM binding z-score', 0.177),
  ('CGAACTAGTTCAGAACAGGACAGTGAAGGATGAT', 'PBM binding z-score', -0.211),
  ('ATCGAAAGGTCGACGAGGTGACTATACACCGTTT', 'PBM binding z-score', 2.4),
  ('CAAACTAGGTCACAGAGGTCAAAGCCCGTGCGTA', 'PBM binding z-score', 9.13);

Lab note: next sequence to report on.
// query Short answer please: PBM binding z-score, PPARg:RXRa IVT, anti-PPARg (NR concentration 270 nM, RXRa partner concentration 90 nM), entry CCTACTGGGCGAAAGGTCATTGATTCCAATGCTC
// result 5.79

---

system: PPARa:RXRa (NR concentration 270 nM, RXRa partner concentration 90 nM); assay: PBM binding z-score (relative to random genomic background probes); higher = stronger binding; sequences stand for … in GC…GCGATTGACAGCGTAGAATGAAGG
Measurement Kind: PBM binding z-score
# answer = number (no unit)

Some sequences with known PBM binding z-score results, for comparison:
INSERT INTO results (sequence_code, study_system, reported_result) VALUES
  ('TCGAGTAGATTAGTCGGGGCATTCAGCCAACATA', 'PPARa:RXRa (NR concentration 270 nM, RXRa partner concentration 90 nM)', -0.142),
  ('ATCGAAAGGTCGAAGGTGAGTTTACCCACCCGAA', 'PPARa:RXRa (NR concentration 270 nM, RXRa partner concentration 90 nM)', 4.78),
  ('TCTTGTAGATCAAGAGAGGTTAAGAAAGTGCGCT', 'PPARa:RXRa (NR concentration 270 nM, RXRa partner concentration 90 nM)', 1.44),
  ('AGAACGAGGGCACTGAGTTGATAGCACGGGTGGC', 'PPARa:RXRa (NR concentration 270 nM, RXRa partner concentration 90 nM)', 1.52),
  ('CTACCAAGGTGGACAAGGTCGTTGATTACTATTC', 'PPARa:RXRa (NR concentration 270 nM, RXRa partner concentration 90 nM)', 0.861);

// query Reported PBM binding z-score, sequence CGTCCAATGTCAAGGTCAGTGAAAGAGACTCGAA : ____
// result 2.67

// query Reported PBM binding z-score, sequence CCTTACGGGTCACTGACAGGTTAGAGCATTTGGA : ____
// result 5.19

// query Reported PBM binding z-score, sequence ACAGACAGGTGAGTGGAGGTAACTCAGCTGGACG : ____
// result 0.431

// query Reported PBM binding z-score, sequence TCGAGTAGGTCAGGGGCATTCAGAATGGCGTCGA : ____
// result 3.41

// query Reported PBM binding z-score, sequence ATCTGTAGGTTACATCCGGGTCATTCAGGCTATG : ____
// result 3.22

// query Reported PBM binding z-score, sequence AGAACGAGGGCAATGAGTTGATAGGACGGGTGGC : ____
// result 1.05

// query Reported PBM binding z-score, sequence TAGCCTTGGTCAGATCGGGCCAGTATACGCTATA : ____
// result -0.565

// query Reported PBM binding z-score, sequence GATACAGGGTCAAGGCCGGAGTACGCGTATTGAT : ____
// result 5.66

// query Reported PBM binding z-score, sequence ATCCCTAGGTAAAGATAGTTCAGTGAATGCAAAT : ____
// result 0.459

// query Reported PBM binding z-score, sequence CCTACTGTGCCAAGGTCATTGATCAGTCAAAGCA : ____
// result 4.05

// query Reported PBM binding z-score, sequence ATCGAAAGGTCGAGGTGAGTAGAGAGAAAGGGAA : ____
// result 4.49

// query Reported PBM binding z-score, sequence CGTCGAAGTTCAAGGTAACGTAACAGAAAGCAGC : ____
// result 2.51
